Test system: CP185
assayDetails: qHTS profiling for inhibitors of Plasmodium falciparum proliferation (AID 504749); further: nearly all actives have a fitted effect of over 60% in size
measurementContext: P. falciparum in erythrocytes, SYBR Green DNA, 72 h; series mostly up to 28.7 µM
Results filed as inconclusive are left out. Active and inactive are the calls of the source. The call rests on the fitted dose curve; in most records, active means well fitted inhibition curve with a large enough effect; inconclusive means small, poorly fitted or top-dose-only effect; inactive means flat fitted curve, though single readings scatter.
outcomeMeasure: outcome

// known answers, use as guide
{"compound": "CC(=O)CC(c1ccccc1)C1C(=O)Oc2ccccc2C1=O (stereo not given)", "outcome": "inactive"}
{"compound": "Nc1nc(/C(=C/CC(=O)O)C(=O)NC2C(=O)N3C(C(=O)O)=CCSC23)cs1 (stereo not given)", "outcome": "inactive"}
{"compound": "COc1ccc(S(=O)(=O)N2c3ccc(Cl)cc3[C@](O)(c3ccccc3Cl)[C@@H]2C(=O)N2CCC[C@H]2C(N)=O)cc1OC", "outcome": "inactive"}
{"compound": "NC(=O)NC(CCC(=O)O)C(=O)O (stereo not given)", "outcome": "inactive"}

# ---- query compound ----
Ask: Assign outcome to the following record: CC(CCC(=O)O)C1CCC2C3C(=O)C[C@@H]4CC(=O)CC[C@@]4(C)C3CC(=O)[C@]12C (stereo not given in full)
Reply: inactive

###

assayDetails: NFAT Signaling Pathway (AID 444);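 further: carbachol stimulus at about its EC50 of 1 µM final; on the % scale 0 is the no-effect control and ±100 the full control effect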
measurementContext: Jurkat NFAT-bla M1, carbachol, beta-lactamase ratio, 5 h; at 17.2 µM (top of the series) unless noted
Records with an inconclusive call do not appear.
outcomeMeasure: activity change, negative = inhibition (%)
# number only, unit % dropped from output

Ask: Assign activity change, negative = inhibition to the following record: "CCCc1nc2n[nH]c(N)c2c2c1CCCC2"
Reply: -0.387

Ask: Assign activity change, negative = inhibition to the following record: "COc1ccccc1N1CCN(C(=O)c2c(C)cc(=O)oc2C)CC1"
Reply: -1.71

Ask: Assign activity change, negative = inhibition to the following record: "COCc1cc(C)nc(N)c1C#N"
Reply: -10.9

Ask: Assign activity change, negative = inhibition to the following record: CCOc1ccc(C2/C(=C(/O)c3ccc(OC)cc3)C(=O)C(=O)N2c2cc(C)on2)cc1OC (stereo unspecified)
Reply: -0.187

Ask: Assign activity change, negative = inhibition to the following record: "CCCCOc1ccc(-c2nnc(N)s2)cc1"
Reply: 25.3

Ask: Assign activity change, negative = inhibition to the following record: "CCCOc1cccc(-c2nnc(N)s2)c1"
Reply: -11.9

###

System: CP335
assayDetails: qHTS profiling for inhibitors of Plasmodium falciparum proliferation (AID 504749); further: nearly all actives have a fitted effect of over 60% in size
measurementContext: P. falciparum in erythrocytes, SYBR Green DNA, 72 h; series mostly up to 28.7 µM
Experimental: NIH National Institute of Allergy and Infectious Diseases [NIAID] NIH Chemical Genomics Center [NCGC] […] Because mature erythrocytes lack DNA, only Plasmodium-derived DNA is detected. NCGC Assay Protocol Summary: The SYBR Green viability assay was adapted from a method described previously (Plouffe et al., 2008). […] The following morning, fluorescence intensity at 485(14) nm excitation and 535(25) nm emission wavelengths was measured on an EnVision (Perkin Elmer) plate reader. […]
Results filed as inconclusive are left out. Activity calls are given as the source filed them. Calls come from the whole dose curve; as a rule, active = well fitted inhibition curve with a large enough effect; inconclusive = small, poorly fitted or top-dose-only effect; inactive = flat fitted curve, though single readings scatter.
Bench note: report the call from active, inactive

Ask: How was CC(=O)OCC(=O)[C@@]1(O)CCC2C3CCC4=CC(=O)C=CC4(C)C3C(O)C[C@]21C (stereo not given in full) classified in this test?
Reply: inactive

Ask: How was O=C(O)C(O)c1ccccc1 (stereo not given) classified in this test?
Reply: inactive

Ask: How was OCC1O[C@H](Oc2ccc(O)cc2)C(O)C(O)C1O (stereo not given in full) classified in this test?
Reply: inactive

Ask: How was CCN1CCN(C(=O)NC(C(=O)NC2C(=O)N3C(C(=O)O)=C(CSc4nnnn4C)CSC23)c2ccc(O)cc2)C(=O)C1=O (stereo not given) classified in this test?
Reply: inactive

Ask: How was "C[C@]12CCC(=O)C=C1[C@@H]1C[C@H]1[C@H]1[C@@H]3[C@@H]4C[C@H]4[C@@]4(CCC(=O)O4)[C@@]3(C)CC[C@@H]12" classified in this test?
Reply: inactive

Ask: How was "CC1=C(/C=C/C(C)=C\C=C\C(C)=C\C=C\C=C(C)\C=C\C=C(C)\C=C\C2=C(C)C[C@@H](O)CC2(C)C)C(C)(C)C[C@H](O)C1" classified in this test?
Reply: active

Ask: How was CC1(C)SC2C(NC(=O)C(C(=O)O)c3ccccc3)C(=O)N2C1C(=O)O (stereo not given) classified in this test?
Reply: inactive

Ask: How was CC(O)C1CCC2C3CCC4CC(O)CCC4(C)C3CCC12C (stereo not given) classified in this test?
Reply: inactive

Ask: How was C[C@]12CC[C@@H]3c4ccc(O)cc4CC[C@H]3[C@@H]1C[C@H](O)C2O (stereo not given in full) classified in this test?
Reply: inactive

Ask: How was "O=C(O)c1ccc(N[C@@H]2OC[C@@H](O)[C@@H](O)[C@@H]2O)cc1" classified in this test?
Reply: inactive

Ask: How was "C[n+]1c2cc(N)ccc2cc2ccc(N)cc21" classified in this test?
Reply: active

Ask: How was COC(=O)C1[C@@H](OC)C(OC(=O)COc2ccc(OC)cc2)C[C@@H]2CN3CCc4c([nH]c5cc(OC)ccc45)[C@H]3C[C@H]12 (stereo not given in full) classified in this test?
Reply: active

Ask: How was "Cc1cncc(C(=O)O)[n+]1[O-]" classified in this test?
Reply: inactive

Ask: How was "CC(=O)NC[C@@H]1CN(c2ccc(N3CCOCC3)c(F)c2)C(=O)O1" classified in this test?
Reply: inactive

Ask: How was "CCN(CC)C(=O)Nc1ccc(OC[C@H](O)CNC(C)(C)C)c(C(C)=O)c1" classified in this test?
Reply: inactive

Ask: How was "CCCCCCCCCCCCCCCC(=O)OC[C@H](O)[C@H]1OC[C@@H](O)[C@@H]1O" classified in this test?
Reply: inactive

Ask: How was C[C@]12CC[C@@H]3c4ccc(O)cc4C[C@@H](CCCCCCCCCS(=O)CCCC(F)(F)C(F)(F)F)C3[C@@H]1CC[C@@H]2O (stereo not given in full) classified in this test?
Reply: active

Ask: How was CC(CN1CC(=O)NC(=O)C1)N1CC(=O)NC(=O)C1 (stereo not given) classified in this test?
Reply: inactive

Ask: How was CN1[C@@H]2CC[C@@H]1CC(OC(=O)[C@H](CO)c1ccccc1)C2 (stereo not given in full) classified in this test?
Reply: inactive

Ask: How was CC1C(=O)C(=O)C=CN1C (stereo not given) classified in this test?
Reply: inactive

###

Test system: 3D7
assayDetails: qHTS profiling for inhibitors of Plasmodium falciparum proliferation (AID 504749); further: nearly all actives have a fitted effect of over 60% in size
measurementContext: P. falciparum in erythrocytes, SYBR Green DNA, 72 h; series mostly up to 28.7 µM
Results filed as inconclusive are left out. Calls of active or inactive are those of the source. Calls follow the shape of the dose curve; as a rule, active = well fitted inhibition curve with a large enough effect; inconclusive = small, poorly fitted or top-dose-only effect; inactive = flat fitted curve, though single readings scatter.
Bench note: report the call from active, inactive

Ask: How was C[C@@H]1C(SC2Cn3cnc[n+]3C2)=C(C(=O)[O-])N2C(=O)[C@H]([C@@H](C)O)[C@@H]12 (stereo not given in full) classified in this test?
Reply: inactive

Ask: How was C=C(CC[C@@H](C)[C@H]1CCC2[C@]1(C)CC[C@]13C[C@@]14CCC(OC(=O)/C=C/c1ccc(O)c(OC)c1)C(C)(C)[C@@H]4CC[C@@]23C)C(C)C (stereo not given in full) classified in this test?
Reply: inactive

Ask: How was "CCCCC/C(C=O)=C/c1ccccc1" classified in this test?
Reply: inactive

Ask: How was "CN[C@H](C)CCC=C(C)C" classified in this test?
Reply: active

Ask: How was CC(=O)C1(O)Cc2c(O)c3c(c(O)c2C(OC2CC(N)C(O)C(C)O2)C1)C(=O)c1c(O)cccc1C3=O (stereo not given) classified in this test?
Reply: active

Ask: How was "C#C[C@@]1(O)CC[C@@H]2[C@H]3CCC4=C/C(=N\O)CC[C@H]4[C@@H]3CC[C@]21CC" classified in this test?
Reply: inactive

Ask: How was NCCCCC(N)C(=O)O (stereo not given) classified in this test?
Reply: inactive

Ask: How was "CO/N=C(/C(=O)N[C@@H]1C(=O)N2C(C(=O)O)=C(C[n+]3ccc(N)n3CCO)CS[C@H]12)c1csc(N)n1" classified in this test?
Reply: inactive

Ask: How was O=c1ccn(C2OC(COP(=O)(O)OC3C(CO)OC(n4ccc(=O)[nH]c4=O)C3O)C(O)C2O)c(=O)[nH]1 (stereo not given) classified in this test?
Reply: inactive

Ask: How was CCCCC(=O)OC1CCC2C3CCc4cc(O)ccc4C3CC[C@]12C (stereo not given in full) classified in this test?
Reply: inactive
